target: T1, human LILRB2 expressed on cells (293T-LILRB2, CHO-K1-LILRB2) (human, UniProt Q8N423 22-597); assay: flow cytometry, His-HLA-A2 tetramer (competitor) bound to 293T-LILRB2 cells, relative to no antibody; design: concentration or dose not given beside the values
T1 construct: whole, on cells; the cell line is named under assay; also called HEK293T-LILRB2
T1 sequence (Q8N423 22-597): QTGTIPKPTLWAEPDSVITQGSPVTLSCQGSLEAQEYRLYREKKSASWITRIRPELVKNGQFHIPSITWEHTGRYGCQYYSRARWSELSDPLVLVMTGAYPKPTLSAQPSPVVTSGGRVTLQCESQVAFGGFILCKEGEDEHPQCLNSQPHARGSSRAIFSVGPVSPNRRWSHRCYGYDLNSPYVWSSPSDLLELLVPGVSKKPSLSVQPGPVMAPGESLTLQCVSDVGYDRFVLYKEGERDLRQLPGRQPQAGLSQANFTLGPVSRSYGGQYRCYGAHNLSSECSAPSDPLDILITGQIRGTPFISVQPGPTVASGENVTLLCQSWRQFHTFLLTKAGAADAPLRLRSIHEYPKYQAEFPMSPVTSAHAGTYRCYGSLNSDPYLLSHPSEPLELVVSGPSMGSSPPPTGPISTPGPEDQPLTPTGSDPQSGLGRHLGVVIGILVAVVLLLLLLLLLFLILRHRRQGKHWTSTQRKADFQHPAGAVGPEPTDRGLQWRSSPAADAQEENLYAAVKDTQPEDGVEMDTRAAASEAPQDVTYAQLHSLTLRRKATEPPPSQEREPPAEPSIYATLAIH
measured.parameter: % no Ab (%)
One number for each entry, in %.

{"columns": ["binder", "numeric.value"],
 "data": [
  ["Antibody 2E1_GE11 (antibody, V domains shown) VH: EVQLVESGGGLVQPGGSLRLSCAVSGYSITSGYSWNWIRQAPGKGLEWVAYISYDGNNNYNPSLKNRFTISRDTSKNTFYLQMNSLRAEDTAVYYCAREESTMITTAWFAYWGQGTLVTVSS VL: DIQMTQSPSSLSASVGDRVTITCGASENIYSNLAWYQQKPGKAPKLLIYGATELASGVPSRFSGSGSGTDYTLTISSLQPEDFATYYCQHFWDTPYTFGQGTKVEIK", 46.2],
  ["Antibody 2E1_FH2 (antibody, V domains shown) VH: EVQLVESGGGLVQPGGSLRLSCAVSGYSITSGYYWNWIRQAPGKGLEWVASISYDGNNNYNPSLKNRFTISRDTSKNTFYLQMNSLRAEDTAVYYCAREESTMITTAWFAYWGQGTLVTVSS VL: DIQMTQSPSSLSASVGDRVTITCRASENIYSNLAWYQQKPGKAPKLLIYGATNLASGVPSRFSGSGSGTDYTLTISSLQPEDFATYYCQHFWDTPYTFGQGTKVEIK", 51.5]
]}

In: Given the entry Antibody 2E1_FC11 (antibody, V domains shown, also called A16) VH: EVQLVESGGGLVQPGGSLRLSCAVSGYSITSGYYWNWIRQAPGKGLEWVAYISYDGNINYNPSLKNRFTISRDTSKNTFYLQMNSLRAEDTAVYYCAREESTMITTAWFAYWGQGTLVTVSS VL: DIQMTQSPSSLSASVGDRVTITCRASENIYSNLAWYQQKPGKAPKLLIYGATNLASGVPSRFSGSGSGTDYTLTISSLQPEDFATYYCQHFWDYPYTFGQGTKVEIK , report its measured % no Ab.
Out: 50.7
